Source listed as patent US20240366649A1.

Tested on: Ovarian cancer OVCAR-8 cells
Assay: Cancer cell viability assay with 3D cell colonies (CellTiter-Glo), OVCAR-8
Type: cell-based
Conditions: Homo sapiens, 168 h; OVCAR-8, 3D methylcellulose colonies, 7 days
pIC50: −log10 of the molar value.
readout label: pIC50

Looking up C#C[C@]1(CO)O[C@@H](n2cnc3c(N)nc(F)nc32)C[C@@H]1O , I found its pIC50 recorded as ≥ 5.00

* * *

Biological target: LINE1 reverse transcriptase (Homo sapiens, UniProt O00370)
Test: Stable artificial-intron Cis LINE1 reporter assay
Type: cell-based
Set-up: expressed in transfected cells
Settings: HeLa L1 artificial-intron reporter cells, doxycycline-induced, 72 h, Firefly luciferase activity
readout label: IC50

compound: C#C[C@]1(COP(=O)(O)N[C@@H](C)C(=O)OC(C)C)O[C@@H](n2cnc3c(N)nc(Cl)nc32)C[C@@H]1O
target entity: LINE1 reverse transcriptase (Homo sapiens, UniProt O00370)
IC50: ≤ 0.05 µM
--
compound: C#C[C@]1(CO[P@@](=O)(N[C@@H](C)C(=O)OC(C)C)Oc2ccccc2)O[C@@H](n2cnc3c(N)nc(F)nc32)C[C@@H]1O
target entity: LINE1 reverse transcriptase (Homo sapiens, UniProt O00370)
IC50: 0.05 to 0.5 µM
--
compound: C#C[C@@]12COP(=O)(OC(C)C)O[C@H]1C[C@H](n1cnc3c(N)nc(F)nc31)O2 (stereo partly drawn)
target entity: LINE1 reverse transcriptase (Homo sapiens, UniProt O00370)
IC50: ≤ 0.05 µM

Looking up C#C[C@]1(CO)O[C@@H](n2cnc3c(N)nc(F)nc32)C[C@@H]1O , I found its IC50 recorded as ≤ 0.05 µM

Looking up C#C[C@]1(COP(=O)(O)N[C@H](C)C(=O)OC(C)C)O[C@@H](n2cnc3c(N)nc(F)nc32)C[C@@H]1O , I found its IC50 recorded as 0.05 to 0.5 µM

Looking up Cc1cn([C@H]2C[C@H](N=[N+]=[N-])[C@@H](CO)O2)c(=O)[nH]c1=O [AZT (zidovudine), Zidovudine, reference compound] , I found its IC50 recorded as > 0.5 µM

* * *

Molecular target: LINE1 reverse transcriptase (Homo sapiens)
Test: Transient artificial-intron Cis LINE1 reporter assay
Assay type: cell-based
Design: expressed in transfected cells
Settings: HEK 293 cells; ratio FLuc/RLuc reports LINE1 activity; tested up to 100 μM; read-out: IC50 for inhibiting FLuc luminescence
Overview of reported IC50 across a group of molecules:

# annotated cases, reported IC50 shown
molecule: C#C[C@]1(CO)O[C@@H](n2cnc3c(N)nc(Cl)nc32)C[C@@H]1O [Compound 8, 4′-ethynyl-2-chloro-2′-deoxyadenosine, reference compound]
IC50: 0.0083 µM
//
molecule: Cc1cn([C@H]2C[C@H](N=[N+]=[N-])[C@@H](CO)O2)c(=O)[nH]c1=O [AZT (zidovudine), Zidovudine, reference compound]
IC50: > 100 µM
//
molecule: Nc1nc(=O)c2ncn([C@@H]3C[C@H](CO)[C@H]3CO)c2[nH]1 [lobucavir, reference compound]
IC50: > 100 µM

Looking up Nc1ccn([C@H]2CO[C@@H](CO)S2)c(=O)n1 , I found its IC50 recorded as > 100 µM

Looking up Nc1ccn([C@@H]2CS[C@H](CO)O2)c(=O)n1 [lamivudine (3TC), Lamivudine, reference compound] , I found its IC50 recorded as > 100 µM

Looking up C#C[C@]1(CO)O[C@@H](n2cnc3c(N)ncnc32)C[C@@H]1O [4′-ethynyl-2′-deoxyadenosine, reference compound] , I found its IC50 recorded as 0.041 µM

* * *

The following compounds each carry a recorded IC50 for HERV-K reverse transcriptase (Homo sapiens, UniProt V9H0F6).
Your answer is read as nM, so omit the unit and give the number.

compound: C#C[C@]1(COP(=O)(O)OP(=O)(O)OP(=O)(O)O)O[C@@H](n2cnc3c(N)nc(F)nc32)C[C@@H]1O [drawing 279]
readout label: IC50
readout value: 17.8

Value (IC50, HERV-K reverse transcriptase (Homo sapiens, UniProt V9H0F6)) for record C#C[C@]1(COP(=O)(O)OP(=O)(O)OP(=O)(O)O)O[C@@H](n2cnc3c(N)nc(Cl)nc32)C[C@@H]1O [drawing 280] = 310

* * *

System: Esophageal cancer KYSE-410 cells
Test: Cancer cell viability assay with 3D cell colonies (CellTiter-Glo), KYSE-410
Format: cell-based
Details: Homo sapiens, 168 h; KYSE-410, 3D methylcellulose colonies, 7 days
readout label: IC50

Looking up C#C[C@]1(CO)O[C@@H](n2cnc3c(N)nc(F)nc32)C[C@@H]1O , I found its IC50 recorded as > 30 µM

* * *

System: Ovarian cancer OVCAR-8 cells
Assay: Cancer cell viability assay with 3D cell colonies (CellTiter-Glo), OVCAR-8
Format: cell-based
Settings: OVCAR-8, 3D methylcellulose colonies, 7 days
pIC50: −log10 of the molar value.
readout label: pIC50

Value (pIC50, Ovarian cancer OVCAR-8 cells) for record N.N.[Cl][Pt][Cl] [Cisplatin, cisplatin] = ≥ 5.00

* * *

Overview of reported IC50 across a group of molecules:
Molecular target: LINE1 reverse transcriptase (Homo sapiens, UniProt O00370)
Assay: Stable artificial-intron Cis LINE1 reporter assay
Format: cell-based
Parameters: expressed in transfected cells
Conditions: HeLa L1 artificial-intron reporter cells, doxycycline-induced, 72 h, Firefly luciferase activity

molecule: Nc1nc(=O)c2ncn([C@@H]3C[C@H](CO)[C@H]3CO)c2[nH]1 [lobucavir, reference compound]
IC50: > 500 nM

Looking up C#C[C@@]12COP(=O)(N[C@H](C)C(=O)OC(C)C)O[C@H]1C[C@H](n1cnc3c(N)nc(Cl)nc31)O2 (stereo partly drawn) , I found its IC50 recorded as 50 to 500 nM

Looking up C#C[C@]1(CO)O[C@@H](n2cnc3c(N)nc(Cl)nc32)C[C@@H]1O [Compound 8, 4′-ethynyl-2-chloro-2′-deoxyadenosine, reference compound] , I found its IC50 recorded as ≤ 50 nM

Looking up Nc1ccn([C@@H]2CS[C@H](CO)O2)c(=O)n1 [lamivudine (3TC), Lamivudine, reference compound] , I found its IC50 recorded as > 500 nM

Looking up C#C[C@]1(COP(=O)(N[C@@H](C)C(=O)OC(C)C)OCOC(=O)OC(C)C)O[C@@H](n2cnc3c(N)nc(Cl)nc32)C[C@@H]1O (stereo partly drawn) , I found its IC50 recorded as > 500 nM

Looking up C#C[C@]1(COP(=O)(O)N[C@H](C)C(=O)OC(C)C)O[C@@H](n2cnc3c(N)nc(Cl)nc32)C[C@@H]1O , I found its IC50 recorded as ≤ 50 nM

* * *

Target: LINE1 reverse transcriptase (Homo sapiens)
Assay: Stable artificial-intron Cis LINE1 reporter assay
Format: cell-based
Parameters: expressed in transfected cells
Settings: HeLa L1 artificial-intron reporter cells, doxycycline-induced, 72 h, Firefly luciferase activity
Overview of reported IC50 across a group of compounds:

# annotated cases, reported IC50 shown
compound: C#C[C@@]12COP(=O)(N[C@@H](C)C(=O)OC(C)C)O[C@H]1C[C@H](n1cnc3c(N)nc(Cl)nc31)O2 (stereo partly shown) [IV-6]
IC50: 50 to 500 nM
//
compound: C#C[C@]1(CO)O[C@@H](n2cnc3c(N)ncnc32)C[C@@H]1O [4′-ethynyl-2′-deoxyadenosine, reference compound]
IC50: ≤ 50 nM
//
compound: C#C[C@]1(COP(=O)(O)N[C@@H](C)C(=O)OC(C)C)O[C@@H](n2cnc3c(N)nc(F)nc32)C[C@@H]1O [Compound I-49]
IC50: ≤ 50 nM
//
compound: C#C[C@@]12COP(=O)(N[C@H](C)C(=O)OC(C)C)O[C@H]1C[C@H](n1cnc3c(N)nc(F)nc31)O2 (stereo partly shown) [IV-12]
IC50: 50 to 500 nM
//
compound: C#C[C@]1(CO[P@](=O)(N[C@@H](C)C(=O)OC(C)C)Oc2ccccc2)O[C@@H](n2cnc3c(N)nc(F)nc32)C[C@@H]1O [Compound I-54]
IC50: ≤ 50 nM
//
compound: C#C[C@@]12COP(=O)(OC(C)C)O[C@H]1C[C@H](n1cnc3c(N)nc(Cl)nc31)O2 (stereo partly shown) [IV-1]
IC50: 50 to 500 nM

Looking up C#C[C@@]12COP(=O)(N[C@@H](C)C(=O)OC(C)C)O[C@H]1C[C@H](n1cnc3c(N)nc(F)nc31)O2 (stereo partly shown) [IV-13] , I found its IC50 recorded as 50 to 500 nM

* * *

Target: LINE1 reverse transcriptase (Homo sapiens)
Assay: Homogeneous time-resolved fluorescence (HTRF) LINE1 RT assay
Format: biochemical
Design: recombinant MBP-tagged LINE1 protein (238-1061); MBP; made in house
Details: recombinant MBP-tagged LINE1 protein (238-1061), read-out: IC50 for inhibiting LINE1 reverse transcriptase
readout label: pIC50
// scale note: pIC50 = -log10(conc_M); give the bare number

compound: C#C[C@]1(COP(=O)(O)OP(=O)(O)OP(=O)(O)O)O[C@@H](n2cnc3c(N)nc(Cl)nc32)C[C@@H]1O [drawing 278]
readout value: 7.70

Value (pIC50, LINE1 reverse transcriptase (Homo sapiens)) for record C#C[C@]1(COP(=O)(O)OP(=O)(O)OP(=O)(O)O)O[C@@H](n2cnc3c(N)nc(F)nc32)C[C@@H]1O [drawing 277] = 7.64
